# System: SR
# Test Summary: NCI tumour cell line growth inhibition, 48 h
Calls of active or inactive are those of the source. Rule as the data show it: active = GI50 up to about 1.1 µM and inactive = higher.
Assign a class; possible classes are active, inactive

Molecule	Class Name
Cc1ccc([N+](=O)[O-])cc1/N=N/C(=O)NNc1cc([N+](=O)[O-])ccc1C	inactive

For COc1ccc(/C=C2\CN(C)CC3=C2OC(N)=C(C#N)C3c2ccc(OC)cc2)cc1 (stereo unspecified) , what call appears in the results of this test?
inactive

Let us now turn to Cc1cc(C)n(-c2nc3ccccc3c(=O)[nH]2)n1
active

====

# Test system: MDA-MB-435
# Test Summary: NCI tumour cell line growth inhibition, 48 h
The source made the active and inactive calls. Rule as the data show it: active = GI50 up to about 1.1 µM and inactive = higher.
Measure Name: GI50

Sample answers from the record:
Compound	GI50
CC(=O)c1sc(Nc2ccc(Cl)c(Cl)c2)nc1C	> 100 µM (inactive)
CC12CC(=O)Nc3ccccc3N1C(c1ccccc1)=NO2 (stereo not given)	> 100 µM (inactive)
CC(C)(C)c1ccc(-c2nc3ccc(Cl)cc3c(=O)o2)cc1	24.1 µM (inactive)
CC(C)(C)OC(=O)NCCNC(=O)CN(CC(=O)O)C1CCCCC1N(CC(=O)O)CC(=O)O (stereo not given)	> 100 µM (inactive)
Cc1nc2c(Br)cc(Br)cc2c(=O)n1-c1ccccc1NC1OC(CO)C(O)C(O)C1O (stereo not given)	> 100 µM (inactive)

Notebook entry, MDA-MB-435 assay: GI50 of CSC1NC(c2ccccc2)=C(C#N)C(=O)N1C1OCC(OC(C)=O)C(OC(C)=O)C1OC(C)=O (stereo not given) = ?
> 100 µM (inactive)

Let us now turn to N#CC(C#N)=CNC(=S)c1ccncc1
> 100 µM (inactive)

Let us now turn to CC(=O)ON(C(C)=O)c1ccc(-c2nc3ccccc3s2)cc1C
60.3 µM (inactive)

Let us now turn to C[C@@H](c1ccccc1)n1c(N)c(C#N)c2ccc([N+](=O)[O-])cc2c1=O
14.2 µM (inactive)

Let us now turn to Cc1ccc(NC(=S)NNC(=O)c2cc(-c3ccccc3)nc3ccccc23)cc1
2.81 µM (inactive)

====

Overview of recorded GI50 for various compounds
# System: OVCAR-4
# Test Summary: NCI tumour cell line growth inhibition, 48 h
Activity calls are given as the source filed them. Cut-off read from the data, not from the text of the source: active = GI50 up to about 1.1 µM and inactive = higher.

Sample answers from the record:
Compound	GI50
S=c1sc2c(S)nc(S)nc2n1-c1ccccc1	> 100 µM (inactive)
N#Cc1c(N)nc2[nH]nc(N)c2c1-c1ccccc1	11.3 µM (inactive)
C=CCCCCCCCCCCCC1CCC(CC)N1 (configuration not stated)	4.79 µM (inactive)
S=C1NC2=C(COC/C2=C\c2ccccc2Cl)C(c2ccccc2Cl)N1 (configuration not stated)	31.3 µM (inactive)
OCc1ccc2c(c1)CC1(Cc3ccccc3C1)C2	34 µM (inactive)

GI50 for O=C(/C=C/c1ccccc1Cl)c1cccc2ccccc12 ?
4.81 µM (inactive)

Let us now turn to c1ccc2oc(-c3ccc(-c4nc5ccccc5o4)c4c3CC4)nc2c1
> 100 µM (inactive)

Let us now turn to CNC(=S)/C(=N\Nc1[nH]cnc1C(N)=O)C(N)=S
4.17 µM (inactive)

Let us now turn to CC(C)(C)c1cc(-c2ccc(-c3cc(C(C)(C)C)c(O)c(C(C)(C)C)c3)cc2)cc(C(C)(C)C)c1O
> 100 µM (inactive)

Let us now turn to CC1(C)C2CCC3(OCCO3)C1C(O)C2 (configuration not stated)
> 100 µM (inactive)

Let us now turn to CCOC(=O)C1=C(C)NC(=O)NC1c1ccc(N(CCCl)CCCl)cc1Cl (configuration not stated)
17.2 µM (inactive)

Let us now turn to CC1(C)N=[N+]([O-])C1(C)C
> 100 µM (inactive)
